System: LAMPU (purple deadnettle)
Assay: Pre-emergence herbicidal activity, cool season
Assay type: in vivo, Lamium purpureum
Measurement setup: lowest tested rate with 80% or greater inhibition; rates 300, 100, 30, 10 g/ha; about 14 days
Property label: Pre-emergence activity GR80, LAMPU

Reference set, count: 5
CCCN(CC)C(=O)n1cnc(S(=O)(=O)C(F)(F)Cl)n1 [Example 87] : 100 g/ha
C=C(Br)CC(F)(F)S(=O)(=O)c1ncn(C(=O)N(CC)CC)n1 [Example 19] : 30 g/ha
O=C(N1CCOCC1)n1cnc(S(=O)(=O)C(F)(F)Br)n1 [Example 36] : 300 g/ha
CCN(CC)C(=O)n1cnc(S(=O)(=O)C(F)(F)SCC(=O)OC)n1 [Example 11] : 100 g/ha
CCSC(F)(F)S(=O)(=O)c1ncn(C(=O)N(C)C)n1 [Example 49] : 300 g/ha

Kindly note the recorded Pre-emergence activity GR80, LAMPU for CCCN(CC)C(=O)n1cnc(S(=O)(=O)C(F)F)n1 [Example 28] , which is 30 g/ha

The recorded Pre-emergence activity GR80, LAMPU for C=C(C)CC(F)(F)S(=O)(=O)c1ncn(C(=O)N(CC)CC)n1 [Example 18] is 300 g/ha

Lab note: CCN(CC)C(=O)n1cnc(S(=O)(=O)C(F)(F)SCCOC)n1 [Example 13] gave Pre-emergence activity GR80, LAMPU of 100 g/ha

Lab note: CCN(CC)C(=O)n1cnc(S(=O)(=O)C(F)(F)Cl)n1 [Example 3] gave Pre-emergence activity GR80, LAMPU of 100 g/ha

Per the record, C=CCN(C)C(=O)n1cnc(S(=O)(=O)C(F)(F)SCC)n1 [Example 53] has Pre-emergence activity GR80, LAMPU of [empty]

Kindly note the recorded Pre-emergence activity GR80, LAMPU for O=C(N1CCOCC1)n1cnc(S(=O)(=O)C(F)(F)C(F)F)n1 [Example 60] , which is [empty]

* * *

Overview of recorded inhibition at 100 g/ha for various compounds
Test system: BRAPP (broadleaf signalgrass)
Assay: Pre-plant incorporated (PPI) herbicidal activity, warm season
Type: in vivo, Brachiaria platyphylla
Measurement setup: Urochloa platyphylla; PPI application, 100 g/ha; read-out: Percent inhibition BRAPP
# output: bare number, implied unit %

Worked examples, 5 compounds total:
CCN(CC)C(=O)n1cnc(S(=O)(=O)C(F)(F)Br)n1 : 100
C=CCC(F)(F)S(=O)(=O)c1ncn(C(=O)N(CC)CC)n1 : 50
CCN(CC)C(=O)n1cnc(S(=O)(=O)C(F)F)n1 : 95
C=C(C)CC(F)(F)S(=O)(=O)c1ncn(C(=O)N(CC)CC)n1 : 0
C=C(Br)CC(F)(F)S(=O)(=O)c1ncn(C(=O)N(CC)CC)n1 : 30

Kindly review the next compound as well.
Field inhibition at 100 g/ha (BRAPP (broadleaf signalgrass)), entry CCSC(F)(F)S(=O)(=O)c1ncn(C(=O)N(CC)CC)n1 : 70

* * *

System: VERPE (creeping speedwell)
Assay: Pre-plant incorporated (PPI) herbicidal activity, cool season
Format: in vivo, Veronica persicaria
Measurement setup: weed, PPI application, 900 g/ha
Some compounds, each annotated with its measured Percent inhibition VERPE.
# include the unit after the value

CCN(CC)C(=O)n1cnc(S(=O)(=O)C(F)(F)SCc2ccccc2)n1 : 100%
CCN(CC)C(=O)n1cnc(S(=O)(=O)C(F)(F)SCC(=O)OC)n1 : 100%
C=C(CC(F)(F)S(=O)(=O)c1ncn(C(=O)N(CC)CC)n1)C[Si](C)(C)C : 95%

Consider CCN(CC)C(=O)n1cnc(S(=O)(=O)C(F)(F)SCCOC)n1 . Its measured Percent inhibition VERPE is 100%

Entry CCN(CC)C(=O)n1cnc(S(=O)(=O)C(F)(F)C(F)F)n1 — recorded Percent inhibition VERPE = 100%

* * *

Tested on: VERPE (creeping speedwell)
Assay: Pre-plant incorporated (PPI) herbicidal activity, cool season
Assay type: in vivo, Veronica persicaria
Measurement setup: weed, PPI application, 10 g/ha
Percent inhibition VERPE overview
Return type: number; implicit unit %.

Reference set (4 entries):
CCN(CC)C(=O)n1cnc(S(=O)(=O)C(F)(F)SCCOC)n1 : 75
CCN(CC)C(=O)n1cnc(S(=O)(=O)C(F)(F)C(F)F)n1 : 100
CCN(CC)C(=O)n1cnc(S(=O)(=O)C(F)(F)SCc2ccccc2)n1 : 70
CCN(CC)C(=O)n1cnc(S(=O)(=O)C(F)(F)SCC(=O)OC)n1 : 90

Next item in the queue.
molecule C=C(CC(F)(F)S(=O)(=O)c1ncn(C(=O)N(CC)CC)n1)C[Si](C)(C)C , Percent inhibition VERPE observed: 0

* * *

# key: entry, value: inhibition at 30 g/ha
Tested on: AGSST (creeping bentgrass)
Assay: Pre-plant incorporated (PPI) herbicidal activity, cool season
Type: in vivo, Agrostis stolonifera
Measurement setup: Agrostis stolonifera; weed, PPI application, 30 g/ha; read-out: Percent inhibition AGSST
Write the answer as a number in %, unit excluded.

CCN(CC)C(=O)n1cnc(S(=O)(=O)C(F)(F)Br)n1 [Example 1] : 100
C=C(Br)CC(F)(F)S(=O)(=O)c1ncn(C(=O)N(CC)CC)n1 [Example 19] : 90
C=CCC(F)(F)S(=O)(=O)c1ncn(C(=O)N(CC)CC)n1 [Example 17] : 95
CCSC(F)(F)S(=O)(=O)c1ncn(C(=O)N(CC)CC)n1 [Example 8] : 100

Pending compound:
Per the reported AGSST (creeping bentgrass) data, C=C(C)CC(F)(F)S(=O)(=O)c1ncn(C(=O)N(CC)CC)n1 [Example 18] has inhibition at 30 g/ha of 60

* * *

Overview of recorded Percent inhibition GALAP for various compounds
Tested on: GALAP (catchweed bedstraw)
Assay: Pre-plant incorporated (PPI) herbicidal activity, cool season
Format: in vivo, Galium aparine
Measurement setup: weed, PPI application, 30 g/ha
# number then unit; no other words

Past entries and their recorded results:
CCN(CC)C(=O)n1cnc(S(=O)(=O)C(F)(F)C(F)F)n1 [Example 16] : 20%
CCN(CC)C(=O)n1cnc(S(=O)(=O)C(F)(F)SCC(=O)OC)n1 [Example 11] : 0%
C=C(CC(F)(F)S(=O)(=O)c1ncn(C(=O)N(CC)CC)n1)C[Si](C)(C)C [Example 20] : 0%
CCN(CC)C(=O)n1cnc(S(=O)(=O)C(F)(F)F)n1 [Example 2] : 60%
CCN(CC)C(=O)n1cnc(S(=O)(=O)C(F)(F)SC)n1 [Example 9] : 100%
CCN(CC)C(=O)n1cnc(S(=O)(=O)C(F)(F)Cl)n1 [Example 3] : 100%

Measured Percent inhibition GALAP for this entry CCN(CC)C(=O)n1cnc(S(=O)(=O)C(F)(F)C(F)(F)Br)n1 [Example 4] on GALAP (catchweed bedstraw): 75%

Reading of Percent inhibition GALAP for CCN(CC)C(=O)n1cnc(S(=O)(=O)C(F)(F)SCCOC)n1 [Example 13] with GALAP (catchweed bedstraw): 30%

Response field Percent inhibition GALAP (GALAP (catchweed bedstraw)) for item CCN(CC)C(=O)n1cnc(S(=O)(=O)C(F)(F)SCc2ccccc2)n1 [Example 10] : 0%

* * *

System: STEME (common chickweed)
Assay: Pre-plant incorporated (PPI) herbicidal activity, cool season
Type: in vivo, Stellaria media
Measurement setup: weed, PPI application, 10 g/ha
Property label: Percent inhibition STEME (%)
Expressed in %, but write only the number.

CCN(CC)C(=O)n1cnc(S(=O)(=O)C(F)(F)C(F)F)n1 : 40
CCN(CC)C(=O)n1cnc(S(=O)(=O)C(F)(F)SCC(=O)OC)n1 : 0
CCN(CC)C(=O)n1cnc(S(=O)(=O)C(F)(F)SCc2ccccc2)n1 : 0

Value of measured Percent inhibition STEME for the entry CCN(CC)C(=O)n1cnc(S(=O)(=O)C(F)(F)SCCOC)n1 : 0

* * *

System: AGRRE (quackgrass (seedling))
Assay: Post-emergence herbicidal activity, cool season
Format: in vivo, Elymus repens
Measurement setup: abraded plants sprayed at 300, 100, 30 and 10 g/ha; about 14 days after treatment
Procedure: In another set of tests, the post-emergence activity of compounds of this invention was evaluated on the cool season species listed above. The following procedure was used. A pre-prepared topsoil mixture (described above) was placed in a pot and compacted to a depth of 1.0 to 1.25 cm from the top of the pot. […] The seeds were covered with a mixture of 50% topsoil and 50% Rediearth™ in sufficient quantity to level-fill the pots. […]
Property label: Post-emergence activity GR80, AGRRE

CCN(CC)C(=O)n1cnc(S(=O)(=O)C(F)(F)SC)n1 : [empty]
CCN(CC)C(=O)n1cnc(S(=O)(=O)C(F)(F)SCc2ccccc2)n1 : [empty]
CCN(CC)C(=O)n1cnc(S(=O)(=O)C(F)F)n1 : [empty]
C=CCC(F)(F)S(=O)(=O)c1ncn(C(=O)N(CC)CC)n1 : [empty]
CCN(CC)C(=O)n1cnc(S(=O)(=O)C(F)(F)SCCOC(=O)c2ccccc2)n1 : [empty]

Reported Post-emergence activity GR80, AGRRE ( CCN(CC)C(=O)n1cnc(S(=O)(=O)C(F)(F)Br)n1 ) = [empty]

For CCN(CC)C(=O)n1cnc(S(=O)(=O)C(F)(F)SCCOC(C)=O)n1 the molecule record lists Post-emergence activity GR80, AGRRE as [empty]

Please fill in: Post-emergence activity GR80, AGRRE reported for CCN(CC)C(=O)n1cnc(S(=O)(=O)C(F)(F)SCC(=O)OC)n1 = [empty]

Form field Post-emergence activity GR80, AGRRE, entry CCN(CC)C(=O)n1cnc(S(=O)(=O)C(F)(F)SCCO)n1 : [empty]

Recorded result, C=C(Br)CC(F)(F)S(=O)(=O)c1ncn(C(=O)N(CC)CC)n1 , Post-emergence activity GR80, AGRRE: [empty]

The recorded Post-emergence activity GR80, AGRRE for entry C=C(C)CC(F)(F)S(=O)(=O)c1ncn(C(=O)N(CC)CC)n1 equals [empty]

Looking up C=C(CC(F)(F)S(=O)(=O)c1ncn(C(=O)N(CC)CC)n1)C[Si](C)(C)C , I see its Post-emergence activity GR80, AGRRE listed as [empty]

CCN(CC)C(=O)n1cnc(S(=O)(=O)C(F)(F)C(F)(F)SC)n1 yielded Post-emergence activity GR80, AGRRE of [empty]

The recorded Post-emergence activity GR80, AGRRE for CCN(CC)C(=O)n1cnc(S(=O)(=O)C(F)(F)SCCOC)n1 is [empty]

Data point: CCSC(F)(F)S(=O)(=O)c1ncn(C(=O)N(CC)CC)n1 ; Post-emergence activity GR80, AGRRE = [empty]
